tested on: Candida albicans; assay: Antifungal activity against Candida albicans ATCC 90028 after 24 hrs by microdilution susceptibility assay; type: functional; conditions: ATCC 90028, 24 h
Provide the reported MIC of each item.

Kindly note: Candida albicans, "COc1ccccc1/C=N/NC(=O)CSc1nnnn1C" , MIC value reported: > 8000 µg/mL

Kindly note: Candida albicans, "Cn1nnnc1SCC(=O)N/N=C/c1ccccc1" , MIC value reported: > 8000 µg/mL

Kindly note: Candida albicans, "Cn1nnnc1SCC(=O)N/N=C/c1cccc(Br)c1" , MIC value reported: > 8000 µg/mL

Kindly note: Candida albicans, "Cn1nnnc1SCC(=O)N/N=C/c1ccccc1F" , MIC value reported: 500 µg/mL

Kindly note: Candida albicans, "Cn1nnnc1SCC(=O)N/N=C/c1ccccc1Br" , MIC value reported: > 8000 µg/mL

Kindly note: Candida albicans, "Cn1nnnc1SCC(=O)N/N=C/c1ccccc1[N+](=O)[O-]" , MIC value reported: 62.5 µg/mL

Kindly note: Candida albicans, "Cn1nnnc1SCC(=O)N/N=C/c1ccc(O)cc1" , MIC value reported: 1000 µg/mL

Kindly note: Candida albicans, "COc1cccc(/C=N/NC(=O)CSc2nnnn2C)c1" , MIC value reported: > 8000 µg/mL

Kindly note: Candida albicans, "C/C(=N\NC(=O)CSc1nnnn1C)c1cc(Cl)ccc1Cl" , MIC value reported: > 8000 µg/mL

Kindly note: Candida albicans, "Cc1cccc(/C=N/NC(=O)CSc2nnnn2C)c1" , MIC value reported: > 8000 µg/mL

Kindly note: Candida albicans, "Cn1nnnc1SCC(=O)N/N=C/c1c(Cl)cccc1Cl" , MIC value reported: > 8000 µg/mL

Kindly note: Candida albicans, "COc1ccc(/C=N/NC(=O)CSc2nnnn2C)cc1" , MIC value reported: 500 µg/mL

Kindly note: Candida albicans, "Cn1nnnc1SCC(=O)N/N=C/c1cccc(O)c1" , MIC value reported: > 8000 µg/mL

Kindly note: Candida albicans, "C/C(=N\NC(=O)CSc1nnnn1C)c1ccc(Cl)cc1Cl" , MIC value reported: > 8000 µg/mL

Kindly note: Candida albicans, "Cn1nnnc1SCC(=O)N/N=C/c1ccc(Cl)cc1" , MIC value reported: > 8000 µg/mL

Kindly note: Candida albicans, "Cn1nnnc1SCC(=O)N/N=C/c1ccc(F)cc1" , MIC value reported: > 8000 µg/mL

Kindly note: Candida albicans, "Cn1nnnc1SCC(=O)N/N=C/c1ccccc1Cl" , MIC value reported: > 8000 µg/mL

Kindly note: Candida albicans, "CC(C)c1ccc(/C=N/NC(=O)CSc2nnnn2C)cc1" , MIC value reported: > 8000 µg/mL

Kindly note: Candida albicans, "C/C(=N\NC(=O)CSc1nnnn1C)c1ccc(Cl)cc1" , MIC value reported: > 8000 µg/mL

Kindly note: Candida albicans, "Cn1nnnc1SCC(=O)N/N=C/c1cccc([N+](=O)[O-])c1" , MIC value reported: > 8000 µg/mL

Kindly note: Candida albicans, "Cn1nnnc1SCC(=O)N/N=C/c1ccc(Cl)cc1Cl" , MIC value reported: > 8000 µg/mL

Kindly note: Candida albicans, "Cc1ccc(/C=N/NC(=O)CSc2nnnn2C)cc1" , MIC value reported: > 8000 µg/mL

Kindly note: Candida albicans, "Cn1nnnc1SCC(=O)N/N=C/c1cccc(F)c1" , MIC value reported: > 8000 µg/mL

Kindly note: Candida albicans, "Cn1nnnc1SCC(=O)N/N=C/c1ccc(C(F)(F)F)cc1" , MIC value reported: > 8000 µg/mL

Kindly note: Candida albicans, "Cn1nnnc1SCC(=O)N/N=C/c1ccccc1O" , MIC value reported: > 8000 µg/mL

Kindly note: Candida albicans, "C/C(=N\NC(=O)CSc1nnnn1C)c1ccccc1Cl" , MIC value reported: > 8000 µg/mL

Kindly note: Candida albicans, "Cc1ccccc1/C=N/NC(=O)CSc1nnnn1C" , MIC value reported: > 8000 µg/mL

Kindly note: Candida albicans, CC(=O)N1CCN(c2ccc(OCC3COC(Cn4ccnc4)(c4ccc(Cl)cc4Cl)O3)cc2)CC1 (centres undefined) [KETOCONAZOLE] , MIC value reported: 31 µg/mL

Kindly note: Candida albicans, "Cn1nnnc1SCC(=O)N/N=C/c1cccc(Cl)c1" , MIC value reported: > 8000 µg/mL

Kindly note: Candida albicans, "Cn1nnnc1SCC(=O)N/N=C/c1ccc(Br)cc1" , MIC value reported: > 8000 µg/mL

Kindly note: Candida albicans, "Cn1nnnc1SCC(=O)N/N=C/c1ccc([N+](=O)[O-])cc1" , MIC value reported: > 8000 µg/mL

Kindly note: Candida albicans, "C/C(=N\NC(=O)CSc1nnnn1C)c1cccc(Cl)c1" , MIC value reported: > 8000 µg/mL

Kindly note: Candida albicans, "CN(C)c1ccc(/C=N/NC(=O)CSc2nnnn2C)cc1" , MIC value reported: 50 µg/mL

Kindly note: Candida albicans, "Cn1nnnc1SCC(=O)N/N=C/c1cccc(Cl)c1Cl" , MIC value reported: > 8000 µg/mL
